# key: entry, value: melting point

Worked examples follow.
INSERT INTO results (molecule, measured_endpoint, result_value) VALUES
  ('CCCCCCCOc1ccc([C@@H]2CC(=NO)c3c(O)cc(OCCCCCCC)cc3O2)cc1 [B4, 7,4′-Di-O-heptylnaringenin oxime]', 'melting point', '82 to 83 °C'),
  ('CCCCCCCCCOc1cc(O)c2c(c1)O[C@H](c1ccc(O)cc1)CC2=NO [B7, 7-O-Nonylnaringenin oxime]', 'melting point', '176 to 178 °C'),
  ('CCCCCCCCCCCOc1ccc([C@@H]2CC(=O)c3c(O)cc(OCCCCCCCCCCC)cc3O2)cc1 [A10, 7,4′-Di-O-undecylnaringenin]', 'melting point', '63 to 64 °C');

Shift focus to the following entry.
Reported melting point ( CCCCCCCOc1cc(O)c2c(c1)O[C@H](c1ccc(O)cc1)CC2=O [A3, 7-O-Heptylnaringenin] ) = 114 to 115 °C

---

# Method notes: SRB assay, cytotoxicity
# Format: cell-based, mouse
# Condition context: mouse, 3T3-L1 cells; 3T3-L1, SRB, 24 h exposure, three independent repeats; read-out: Cytotoxicity (IC50 ± SD)
Measured endpoint: IC50 at 24 h (µg/mL)
Numbers only; they are read as µg/mL.

Worked examples follow.
INSERT INTO measurements (smiles_repr, measured_endpoint, result_value) VALUES
  ('CCCCCCCOc1cc(O)c2c(c1)O[C@H](c1ccc(O)cc1)CC2=NO', 'IC50 at 24 h', 7.77),
  ('CCCCCCCCCOc1cc(O)c2c(c1)O[C@H](c1ccc(O)cc1)CC2=NO', 'IC50 at 24 h', 6.08);

Reported IC50 at 24 h ( CCCCCCCCCCCOc1cc(O)c2c(c1)O[C@H](c1ccc(O)cc1)CC2=NO ) = 6.74

Reported IC50 at 24 h ( CCCCCCOc1cc(O)c2c(c1)O[C@H](c1ccc(O)cc1)CC2=NO ) = 8.3

Reported IC50 at 24 h ( CCCCCCCCOc1cc(O)c2c(c1)O[C@H](c1ccc(O)cc1)CC2=O ) = 8.86

Reported IC50 at 24 h ( CCCCCCOc1ccc([C@@H]2CC(=NO)c3c(O)cc(OCCCCCC)cc3O2)cc1 ) = 10.1
